test system: HepG2-TP53BP1-CLTA; assay: phenotypically active (imaging signature differs from DMSO and reproducible) at any of 0.3-9 uM (binary (1 = active, 0 = inactive)); higher = active; settings: treatment time: 24 h
Structures can show the parent of a compound that is named as a salt.
Measure: phenotypically active

[
  {
    "Compound": "COC(=O)[C@@H]1[C@H]2C[C@H]3c4[nH]c5ccccc5c4CCN3C[C@@H]2CC[C@@H]1O [Yohimbine hydrochloride]",
    "Data value": 0
  },
  {
    "Compound": "Cn1c(=O)c2[nH]cnc2n(C)c1=O",
    "Data value": 0
  },
  {
    "Compound": "CC/C(=C(/c1ccccc1)c1ccc(OCCN(C)C)cc1)c1ccccc1",
    "Data value": 1
  },
  {
    "Compound": "CCCc1nc(C(C)(C)O)c(C(=O)OCc2oc(=O)oc2C)n1Cc1ccc(-c2ccccc2-c2nnn[nH]2)cc1",
    "Data value": 0
  },
  {
    "Compound": "CCSc1ccc2c(c1)N(CCCN1CCN(C)CC1)c1ccccc1S2",
    "Data value": 0
  },
  {
    "Compound": "Clc1ccc(C(c2ccc(Cl)cc2)[n+]2ccn(CC(OCc3ccc(Cl)cc3Cl)c3ccc(Cl)cc3Cl)c2)cc1 (stereo unspecified) [Calmidazolium chloride]",
    "Data value": 0
  },
  {
    "Compound": "COC1=C(O)C(=O)c2ccccc2C1=O [2-hydroxy-3-methoxy-naphtoquinone]",
    "Data value": 0
  },
  {
    "Compound": "Cc1c(NC(=O)OC[C@@H]2COCCN2)cn2ncnc(Nc3ccc4c(cnn4Cc4cccc(F)c4)c3)c12",
    "Data value": 1
  },
  {
    "Compound": "O=C(O)[C@H](Cc1c[nH]c2ccccc12)N1C(=O)c2ccccc2C1=O",
    "Data value": 0
  },
  {
    "Compound": "CC(=O)O[C@H]1C[C@@H]2CC[C@@H]3[C@H](CC[C@@]4(C)[C@H]3C[C@H]([N+]3(C)CCCCC3)[C@@H]4OC(C)=O)[C@@]2(C)C[C@@H]1N1CCCCC1",
    "Data value": 0
  },
  {
    "Compound": "CC(C)(C(=O)c1cccnc1)c1cccnc1",
    "Data value": 0
  },
  {
    "Compound": "Cc1ccc(C(=O)c2ccc(CC(=O)O)n2C)cc1",
    "Data value": 0
  },
  {
    "Compound": "Nc1ncnc2c1c(-c1ccc(Cl)cc1)nn2-c1cccc(-c2cnnn2Cc2cccc(-c3ccccc3)c2)c1",
    "Data value": 0
  },
  {
    "Compound": "CC(=O)c1ccc(S(=O)(=O)NC(=O)NC2CCCCC2)cc1 [acetohexamide]",
    "Data value": 0
  },
  {
    "Compound": "O=C(NCc1ccccn1)Nc1nnc(-c2ccco2)o1",
    "Data value": 0
  },
  {
    "Compound": "CNCC[C@H](Oc1cccc2ccccc12)c1cccs1",
    "Data value": 0
  },
  {
    "Compound": "CC(C)NCC(O)c1ccc(NS(C)(=O)=O)cc1 (stereo unspecified)",
    "Data value": 0
  },
  {
    "Compound": "O=C(NOC[C@H](O)CO)c1ccc(F)c(F)c1Nc1ccc(I)cc1F",
    "Data value": 1
  },
  {
    "Compound": "c1ccc(-c2n[nH]cc2-c2ccnc3ccccc23)nc1",
    "Data value": 1
  },
  {
    "Compound": "Nc1ncnc2c1c(-c1cnc3[nH]ccc3c1)nn2C1CCCC1",
    "Data value": 1
  },
  {
    "Compound": "COc1ccc(-n2c(SCCCN3C(=O)c4cccc5cccc(c45)C3=O)nnc2-c2ccncc2)cc1",
    "Data value": 0
  },
  {
    "Compound": "CC(=O)OC(C)C[N+](C)(C)C (stereo unspecified)",
    "Data value": 0
  },
  {
    "Compound": "Nc1cc(N)c(N)cc1N",
    "Data value": 1
  },
  {
    "Compound": "CSc1ccc(C(=O)c2[nH]c(=O)[nH]c2C)cc1",
    "Data value": 0
  },
  {
    "Compound": "CN(C)c1ccc(C(=O)NCCCCCCC(=O)NO)cc1",
    "Data value": 1
  },
  {
    "Compound": "CC1(C)CCC(C)(C)c2cc(C(O)C(=O)Nc3ccc(C(=O)O)cc3F)ccc21 (stereo unspecified)",
    "Data value": 0
  },
  {
    "Compound": "C#Cc1cccc(Nc2ncnc3cc(OCCOC)c(OCCOC)cc23)c1",
    "Data value": 1
  },
  {
    "Compound": "CN1[C@@H](CC(=O)c2ccccc2)CCC[C@H]1C[C@H](O)c1ccccc1 [Lobeline alpha (-) hydrochoride]",
    "Data value": 0
  },
  {
    "Compound": "Cc1[nH]c2ccccc2c1CCNC(=O)c1ccccc1F",
    "Data value": 0
  },
  {
    "Compound": "Nc1ccc(-c2cccc3c(=O)cc(N4CCOCC4)oc23)cc1",
    "Data value": 1
  },
  {
    "Compound": "COc1cc2nc3occc3c(OC)c2cc1OC",
    "Data value": 0
  }
]

* * *

test system: A549-CANX-COX4; test: phenotypically active (imaging signature differs from DMSO and reproducible) at any of 0.3-9 uM (binary (1 = active, 0 = inactive)); higher = active; conditions: treatment time: 24 h

[
  {
    "Compound": "CCCNC(C)C(=O)Nc1c(C)csc1C(=O)OC (stereo not drawn)",
    "phenotypically active": 0
  },
  {
    "Compound": "COc1cc(C#N)ccc1S(=O)(=O)Nc1ccc2c(c1)cc(C)c(=O)n2C",
    "phenotypically active": 0
  },
  {
    "Compound": "NS(=O)(=O)c1cc2c(cc1C(F)(F)F)NC(Cc1ccccc1)NS2(=O)=O (stereo not drawn) [bendroflumethiazide]",
    "phenotypically active": 0
  }
]

* * *

test system: HepG2-TUBA1B-RELA; experiment: lowest phenotypically active concentration; higher = less potent; settings: treatment time: 24 h
Measure: lowest phenotypically active concentration

[
  {
    "Molecule": "COc1cc2c(cc1NS(=O)(=O)c1ccc(Br)cc1C)n(C)c(=O)n2C",
    "Data value": "3 µM"
  },
  {
    "Molecule": "S=c1[nH]cnc2nc[nH]c12 [mercaptopurine]",
    "Data value": "9 µM"
  },
  {
    "Molecule": "Cc1ccc2nc(NCCN)c3ncc(C)n3c2c1",
    "Data value": "3 µM"
  },
  {
    "Molecule": "CN1CCC(CN2c3ccccc3Sc3ccccc32)C1 (centres undefined) [methdilazine]",
    "Data value": "9 µM"
  }
]

* * *

tested on: WPMY1-TUBA1B-RELA; test: phenotypically active (imaging signature differs from DMSO and reproducible) at any of 0.3-9 uM (binary (1 = active, 0 = inactive)); higher = active; conditions: treatment time: 24 h
Counter-ions that a name gives are not always drawn.
# key: entry, value: phenotypically active
Measure: phenotypically active

[
  {
    "Compound": "C=C1CC[C@@H]2[C@](C)(CO)[C@H](O)CC[C@@]2(C)[C@@H]1C/C=C1/C(=O)OC[C@H]1O [Andrographolide]",
    "Measured target": "WPMY1-TUBA1B-RELA",
    "Data value": 1
  },
  {
    "Compound": "NS(=O)(=O)Cc1noc2ccccc12 [zonisamide]",
    "Measured target": "WPMY1-TUBA1B-RELA",
    "Data value": 0
  },
  {
    "Compound": "COc1ccc2c(NC(=O)Nc3cccc(C(F)(F)F)n3)ccnc2c1",
    "Measured target": "WPMY1-TUBA1B-RELA",
    "Data value": 0
  },
  {
    "Compound": "Cc1ccc(S(=O)(=O)n2c(N)nc3ccccc32)cc1",
    "Measured target": "WPMY1-TUBA1B-RELA",
    "Data value": 0
  },
  {
    "Compound": "COc1cc2c(cc1-c1c(C)noc1C)ncc1[nH]c(=O)n([C@H](C)c3ccccn3)c12 [I-BET 151 dihydrochloride]",
    "Measured target": "WPMY1-TUBA1B-RELA",
    "Data value": 1
  },
  {
    "Compound": "COc1ccc([C@@H]2CC(=O)c3c(O)cc(O)cc3O2)cc1O [Hesperetin]",
    "Measured target": "WPMY1-TUBA1B-RELA",
    "Data value": 0
  },
  {
    "Compound": "COC(=O)C1=CO[C@@H](O[C@@H]2O[C@H](CO)[C@@H](O)[C@H](O)[C@H]2O)[C@H]2[C@@H]1C(=O)C[C@@H]2C [Verbenaline]",
    "Measured target": "WPMY1-TUBA1B-RELA",
    "Data value": 0
  },
  {
    "Compound": "CCOC(=O)C1=C[C@]2(CC)CCCN3CCc4c(n1c1ccccc41)[C@@H]32 [Vinpocetine]",
    "Measured target": "WPMY1-TUBA1B-RELA",
    "Data value": 0
  },
  {
    "Compound": "Oc1cccc(Nc2ccnc3cc(-c4cccc(CN5CCOCC5)c4)sc23)c1 [LCB 03-0110 dihydrochloride]",
    "Measured target": "WPMY1-TUBA1B-RELA",
    "Data value": 1
  }
]

Cited source: the supplement of paper PMC7411054
